All figures here come from ChEMBL document CHEMBL1144037.

Tested on: Pseudomonas aeruginosa
Test: Antibacterial activity against Pseudomonas aeruginosa PAO1 ampD-deffective mutant after 18 hrs by agar dilution method
Format: functional
Conditions: PAO1, 18 h
Each entry below carries its recorded MIC.
The response must be a number in µg/mL with no trailing unit.

Known results for molecules:
SMILES STR	TARGET OF ASSAY	NUMERIC VALUE
Cn1c(N)c(CCCCCN)c[n+]1CC1=C(C(=O)[O-])N2C(=O)[C@@H](NC(=O)/C(=N\OC(C)(C)C(=O)O)c3nsc(N)n3)[C@H]2SC1	Pseudomonas aeruginosa	1
CCCc1c[n+](CC2=C(C(=O)[O-])N3C(=O)[C@@H](NC(=O)/C(=N\OC(C)(C)C(=O)O)c4nsc(N)n4)[C@H]3SC2)n(C)c1N	Pseudomonas aeruginosa	1
Cn1c(CCN)cc[n+]1CC1=C(C(=O)[O-])N2C(=O)[C@@H](NC(=O)/C(=N\OC(C)(C)C(=O)O)c3nsc(N)n3)[C@H]2SC1.O=S(=O)(O)O	Pseudomonas aeruginosa	0.5

Incoming: Look up and report measured MIC for this entry: Cn1c(N)c(CN)c[n+]1CC1=C(C(=O)[O-])N2C(=O)[C@@H](NC(=O)/C(=N\OC(C)(C)C(=O)O)c3nsc(N)n3)[C@H]2SC1
Outgoing: 0.5

Incoming: Look up and report measured MIC for this entry: CC(C)(O/N=C(\C(=O)N[C@@H]1C(=O)N2C(C(=O)[O-])=C(C[n+]3ccc(N)n3CCO)CS[C@H]12)c1nsc(N)n1)C(=O)O.Cl
Outgoing: 4

Incoming: Look up and report measured MIC for this entry: Cn1c(N)c(CCCCN)c[n+]1CC1=C(C(=O)[O-])N2C(=O)[C@@H](NC(=O)/C(=N\OC(C)(C)C(=O)O)c3nsc(N)n3)[C@H]2SC1
Outgoing: 0.5

Incoming: Look up and report measured MIC for this entry: Cn1c(N)c(N)c[n+]1CC1=C(C(=O)[O-])N2C(=O)[C@@H](NC(=O)/C(=N\OC(C)(C)C(=O)O)c3nsc(N)n3)[C@H]2SC1
Outgoing: 0.5

###

Each entry below carries its recorded MIC.
Test system: Pseudomonas aeruginosa
Assay: Antibacterial activity against Pseudomonas aeruginosa PAO1 after 18 hrs by agar dilution method
Assay type: functional
Conditions: PAO1, 18 h
The response must be a number in µg/mL with no trailing unit.

Known results for molecules:
SMILES STR	MIC (µg/mL)
CCCc1c[n+](CC2=C(C(=O)[O-])N3C(=O)[C@@H](NC(=O)/C(=N\OC(C)(C)C(=O)O)c4nsc(N)n4)[C@H]3SC2)n(C)c1N	2
CC(C)(O/N=C(\C(=O)N[C@@H]1C(=O)N2C(C(=O)[O-])=C(C[n+]3ccc(N)n3CCO)CS[C@H]12)c1nsc(N)n1)C(=O)O.Cl	0.5

Incoming: Look up and report measured MIC for this entry: Cn1c(N)c(N)c[n+]1CC1=C(C(=O)[O-])N2C(=O)[C@@H](NC(=O)/C(=N\OC(C)(C)C(=O)O)c3nsc(N)n3)[C@H]2SC1
Outgoing: 4

Incoming: Look up and report measured MIC for this entry: Cn1c(N)c(CCCCCN)c[n+]1CC1=C(C(=O)[O-])N2C(=O)[C@@H](NC(=O)/C(=N\OC(C)(C)C(=O)O)c3nsc(N)n3)[C@H]2SC1
Outgoing: 2

Incoming: Look up and report measured MIC for this entry: Cn1c(N)c(CCCCN)c[n+]1CC1=C(C(=O)[O-])N2C(=O)[C@@H](NC(=O)/C(=N\OC(C)(C)C(=O)O)c3nsc(N)n3)[C@H]2SC1
Outgoing: 1

Incoming: Look up and report measured MIC for this entry: Cn1c(N)c(CN)c[n+]1CC1=C(C(=O)[O-])N2C(=O)[C@@H](NC(=O)/C(=N\OC(C)(C)C(=O)O)c3nsc(N)n3)[C@H]2SC1
Outgoing: 4

Incoming: Look up and report measured MIC for this entry: Cn1c(CCN)cc[n+]1CC1=C(C(=O)[O-])N2C(=O)[C@@H](NC(=O)/C(=N\OC(C)(C)C(=O)O)c3nsc(N)n3)[C@H]2SC1.O=S(=O)(O)O
Outgoing: 1
